EXPERIMENT NOTES: in vitro
DETAILS: pig, PAMPA
Description: Permeability in BBB by PAMPA using a lipid extract of porcine brain
// values below are reported Papp
ENDPOINT LABEL: Papp (×10⁻⁶ cm/s)

1) COc1ccc2[nH]cc(CCNC(=O)CCCCCCNc3c4c(nc5ccccc35)CCCC4)c2c1 8.6
2) O=C(CCCCCNc1c2c(nc3cc(Cl)ccc13)CCCC2)NCCc1c[nH]c2ccccc12 7.7
3) COc1ccc2[nH]cc(CCNC(=O)CCCCCNc3c4c(nc5cccc(Cl)c35)CCCC4)c2c1 8.9
4) O=C(CCCCCCNc1c2c(nc3ccccc13)CCCC2)NCCc1c[nH]c2ccccc12 9.2

* * *

Quick reference for Papp among some compounds
EXPERIMENT NOTES: in vitro
DETAILS: pig, PAMPA
ENDPOINT LABEL: Papp

1) O=C(CCCCCNc1c2c(nc3cccc(Cl)c13)CCCC2)NCCc1c[nH]c2ccccc12 5.2 ×10⁻⁶ cm/s
2) O=C(CCCCCNc1c2c(nc3ccccc13)CCCC2)NCCc1c[nH]c2ccc(O)cc12 2 ×10⁻⁶ cm/s
3) O=C(CCCCCNc1c2c(nc3ccccc13)CCCC2)NCCc1c[nH]c2ccccc12 11 ×10⁻⁶ cm/s
4) O=C(CCCCCNc1c2c(nc3cc(Cl)cc(Cl)c13)CCCC2)NCCc1c[nH]c2ccccc12 8.4 ×10⁻⁶ cm/s
5) COc1ccc2[nH]cc(CCNC(=O)CCCCCNc3c4c(nc5ccccc35)CCCC4)c2c1 7.7 ×10⁻⁶ cm/s
